- measurement description: Solvent solubility screen of phosphate salt
- Format: physicochemical
- condition notes: water, thermodynamic from solid, Water; read-out: Approx. Solubility
measure name: solubility

Please give the measured solubility for this compound: Cn1ncc2c1Nc1ccccc1NC2 [phosphate pattern 2]
10 to 100 mg/mL

###

- measurement description: Solvent solubility screen of phosphate salt
- Format: physicochemical
- condition notes: 80% acetonitrile/20% water (% v/v), 40 °C, organic solvent or mixture, thermodynamic from solid, 80% Acetonitrile/20% water (% v/v); read-out: Approx. Solubility
measure name: solubility

Entry Cn1ncc2c1Nc1ccccc1NC2 [phosphate pattern 2] has what solubility?
< 5000 µg/mL

###

- measurement description: Solvent solubility screen of phosphate salt
- Type: physicochemical
- condition notes: methylethyl ketone, organic solvent or mixture, thermodynamic from solid, Methylethyl ketone; read-out: Approx. Solubility
measure name: solubility

// returns reported solubility for input Cn1ncc2c1Nc1ccccc1NC2 [phosphate pattern 2]
< 5000 µg/mL

###

- measurement description: Oral pharmacokinetics in rats
- Assay type: in vivo
- condition notes: male, Sprague Dawley, rat, plasma, po, 5 mg/kg, 5 mg/kg target dose (freebase equivalent), Saline, mean ± SD, n = 3, read-out: Tmax
Structures can show the parent of a compound that is named as a salt.
measure name: Tmax (min)
// note: answer is a bare numeric in min

Item Cn1ncc2c1Nc1ccccc1NC2 [Di-hydrochloride salt, dihydrochloride] has what recorded Tmax?
45

###

- measurement description: Oral pharmacokinetics in rats
- Type: in vivo
- condition notes: male, Sprague Dawley, rat, plasma, po, 5 mg/kg, 5 mg/kg target dose (freebase equivalent), Methocel, mean ± SD, n = 3, read-out: Apparent t1/2 (converted)
Counter-ions that a name gives are not always drawn.
measure name: half-life (min)
Field format: number, assumed min, no unit text.

Field request: half-life | item: Cn1ncc2c1Nc1ccccc1NC2 [Di-hydrochloride salt, dihydrochloride]
40.8

###

- measurement description: Oral pharmacokinetics in rats
- Format: in vivo
- condition notes: male, Sprague Dawley, rat, plasma, po, 5 mg/kg, 5 mg/kg target dose (freebase equivalent), Saline, mean ± SD, n = 3, read-out: Plasma AUC0-inf
- Protocol: N=3 rats were run in each of the four conditions: • (1) Di-HCL salt in saline • (2) Di-HCL salt in methocel • (3) Phosphate form 1 in saline • (4) Phosphate form 1 in methocel On the day of dosing the solid compounds were dissolved in either Saline (0.9%) or 0.5% hydroxypropyl methylcellulose (Methocel E3 Premium LV) in Milli-Q water. The formulations were then thoroughly vortexed to produce colourless solutions. […]
Where a name gives a salt, the structure may show the parent alone.
measure name: AUC(0-inf) (µg·h/mL)
Report the value in µg·h/mL with no unit label.

What value of AUC(0-inf) has been reported for the following molecule? Cn1ncc2c1Nc1ccccc1NC2 [Di-hydrochloride salt, dihydrochloride]
5.46

###

- measurement description: Solvent solubility screen of phosphate salt
- Format: physicochemical
- condition notes: ethanol/water Aw 0.4, 40 °C, organic solvent or mixture, thermodynamic from solid, Ethanol/water Aw 0.4; read-out: Approx. Solubility
measure name: solubility

Requested field: solubility. Item: Cn1ncc2c1Nc1ccccc1NC2 [phosphate pattern 2]
< 5000 µg/mL

###

- measurement description: Solvent solubility screen of phosphate salt
- Type: physicochemical
- condition notes: anisole, 40 °C, organic solvent or mixture, thermodynamic from solid, Anisole; read-out: Approx. Solubility
measure name: solubility

# query: solubility of entry Cn1ncc2c1Nc1ccccc1NC2 [phosphate pattern 2]
< 5 mg/mL

###

- measurement description: Solvent solubility screen of phosphate salt
- Type: physicochemical
- condition notes: ethanol, 40 °C, organic solvent or mixture, thermodynamic from solid, Ethanol; read-out: Approx. Solubility
measure name: solubility

Reported solubility, molecule Cn1ncc2c1Nc1ccccc1NC2 [phosphate pattern 2] : ____
< 5000 µg/mL

###

- measurement description: Solvent solubility screen of phosphate salt
- Type: physicochemical
- condition notes: 2-propanol, 40 °C, organic solvent or mixture, thermodynamic from solid, 2-Propanol; read-out: Approx. Solubility
measure name: solubility

Item Cn1ncc2c1Nc1ccccc1NC2 [phosphate pattern 2] has what recorded solubility?
< 5000 µg/mL

###

- measurement description: Solvent solubility screen of phosphate salt
- Assay type: physicochemical
- condition notes: 2-methyl tetrahydrofuran, 40 °C, organic solvent or mixture, thermodynamic from solid, 2-Methyl tetrahydrofuran; read-out: Approx. Solubility
- Description: Selected solvent was added in 50 μL aliquots to approximately 10 mg of poorly crystalline phosphate pattern (obtained from above lyophilisation). Between each addition, the mixture was checked for dissolution and where no dissolution was apparent, the mixture was heated to about 40° C. and checked again. This procedure was continued until dissolution was observed or until 2 mL of solvent had been added. […] All observed solids were analyzed by XRPD. […]
measure name: solubility

Any idea what solubility was measured for Cn1ncc2c1Nc1ccccc1NC2 [phosphate pattern 2] ?
< 5000 µg/mL

###

- measurement description: Solvent solubility screen of phosphate salt
- Assay type: physicochemical
- condition notes: ethanol/water Aw 0.5, 40 °C, organic solvent or mixture, thermodynamic from solid, Ethanol/water Aw 0.5; read-out: Approx. Solubility
measure name: solubility

I am curious: what solubility value has been reported for Cn1ncc2c1Nc1ccccc1NC2 [phosphate pattern 2] ?
< 5000 µg/mL

###

- measurement description: Primary salt screen: XRPD pattern after drying and after 40° C./75% RH
- Type: physicochemical
- condition notes: stability chamber at 40° C./75% RH for about 24 hours
- Text: […]
measure name: Post 40° C./75% RH (XRPD pattern)

// worked examples, Post 40° C./75% RH (XRPD pattern) included
[
  {
    "compound": "Cn1ncc2c1Nc1ccccc1NC2 [Mesylate pattern 2]",
    "Post 40° C./75% RH (XRPD pattern)": "Pattern 1"
  },
  {
    "compound": "Cn1ncc2c1Nc1ccccc1NC2 [Esylate pattern 1]",
    "Post 40° C./75% RH (XRPD pattern)": "Pattern 2"
  },
  {
    "compound": "Cn1ncc2c1Nc1ccccc1NC2 [Isethionate pattern 1]",
    "Post 40° C./75% RH (XRPD pattern)": "Pattern 3"
  },
  {
    "compound": "Cn1ncc2c1Nc1ccccc1NC2 [Maleate pattern 1]",
    "Post 40° C./75% RH (XRPD pattern)": "Pattern 1"
  }
]

Fill blank: measured Post 40° C./75% RH (XRPD pattern) of the compound Cn1ncc2c1Nc1ccccc1NC2 [Napadisylate pattern 1] is ____.
Pattern 1

Same again, this time with Cn1ncc2c1Nc1ccccc1NC2 [Napsylate pattern 1]
Pattern 2

And for Cn1ncc2c1Nc1ccccc1NC2 [Isethionate pattern 2] ?
Pattern 3

Item: Cn1ncc2c1Nc1ccccc1NC2 [Tosylate pattern 1]
Pattern 1

Then this compound: Cn1ncc2c1Nc1ccccc1NC2 [Sulfate pattern 2]
Pattern 2

Also Cn1ncc2c1Nc1ccccc1NC2 [Tosylate pattern 2] , if possible.
Pattern 2

###

- measurement description: Solvent solubility screen of phosphate salt
- Type: physicochemical
- condition notes: methylisobutyl ketone, organic solvent or mixture, thermodynamic from solid, Methylisobutyl ketone; read-out: Approx. Solubility
measure name: solubility

Name the recorded solubility for Cn1ncc2c1Nc1ccccc1NC2 [phosphate pattern 2] .
< 5000 µg/mL

###

- measurement description: Oral pharmacokinetics in rats
- Format: in vivo
- condition notes: male, Sprague Dawley, rat, plasma, po, 5 mg/kg, 5 mg/kg target dose (freebase equivalent), Methocel, mean ± SD, n = 3, read-out: Tmax
- Protocol: N=3 rats were run in each of the four conditions: • (1) Di-HCL salt in saline • (2) Di-HCL salt in methocel • (3) Phosphate form 1 in saline • (4) Phosphate form 1 in methocel On the day of dosing the solid compounds were dissolved in either Saline (0.9%) or 0.5% hydroxypropyl methylcellulose (Methocel E3 Premium LV) in Milli-Q water. The formulations were then thoroughly vortexed to produce colourless solutions. […]
Where a name gives a salt, the structure may show the parent alone.
measure name: Tmax (min)
The reply should contain only the number, in min.

Tmax for Cn1ncc2c1Nc1ccccc1NC2 [Di-hydrochloride salt, dihydrochloride] ?
19.8

###

- measurement description: Solvent solubility screen of phosphate salt
- Type: physicochemical
- condition notes: chloroform, 40 °C, organic solvent or mixture, thermodynamic from solid, Chloroform; read-out: Approx. Solubility
measure name: solubility

Which solubility is listed for Cn1ncc2c1Nc1ccccc1NC2 [phosphate pattern 2] ?
< 5000 µg/mL

###

- measurement description: Solvent solubility screen of phosphate salt
- Format: physicochemical
- condition notes: acetone, 40 °C, organic solvent or mixture, thermodynamic from solid, Acetone; read-out: Approx. Solubility
measure name: solubility

Request the reported solubility associated with Cn1ncc2c1Nc1ccccc1NC2 [phosphate pattern 2]
< 5000 µg/mL

###

- measurement description: Solvent solubility screen of phosphate salt
- Assay type: physicochemical
- condition notes: acetonitrile, 40 °C, organic solvent or mixture, thermodynamic from solid, Acetonitrile; read-out: Approx. Solubility
measure name: solubility

// returns reported solubility for input Cn1ncc2c1Nc1ccccc1NC2 [phosphate pattern 2]
< 5000 µg/mL

###

- measurement description: Solvent solubility screen of phosphate salt
- Type: physicochemical
- condition notes: nitromethane, organic solvent or mixture, thermodynamic from solid, Nitromethane; read-out: Approx. Solubility
measure name: solubility

Data request, read-out solubility, for Cn1ncc2c1Nc1ccccc1NC2 [phosphate pattern 2]
< 5000 µg/mL
